Target: peanut extract (peanut ImmunoCAP F13)
Assay: ImmunoCAP, hybridoma supernatant
assay.readout: ImmunoCAP kUA/L (kUA/L)
Answers are plain numbers, in kUA/L.

Q: // lookup ImmunoCAP kUA/L for human IgE mAb 3B7 (antibody, V domains shown) VH: QVQLVQSGSELKKPGASMKVSCKASGYTFTNYAMNWVRQAPGQGLEWMGWINTNTGKPTYAQGFTGRFVFSLDTSVSMAYLQISSLEAGDTAVYFCARGESLAALGSFAYWGQGTLVTVSS VL: DIQMTQSPSSLSASVGDRVTITCRASQSINSYLAWYQQKPGKAPNLLIYAASNLQSGVPSRFSGSGSGTDFTLTISSLQPEDFATYYCQQSSSTFWTFGQGTKVEIK
Ans: 1500
